Listed here: items and their measured TGI.
Tested on: SNB-19 CNS
Experiment: NCI tumour cell line growth inhibition, 48 h

[[record]]
compound = "O=C(/C=C/c1ccc(Cl)cc1)c1ccc(Nc2ccnc3cc(Cl)ccc23)cc1"
result = "> 100 µM"

[[record]]
compound = "Nc1ncnc2c1nnn2C1OC(CO)C(O)C1O (stereo not drawn)"
result = "> 52.5 µM"


Task: Input CCOC(=O)c1cc2nc3ccccc3c(=O)n2c2ccccc12 , output reported TGI.
Result: > 10 µM

* * *

Test system: MDA-MB-435
Assay: NCI tumour cell line growth inhibition, 48 h
Listed here: items and their measured TGI.
Report as a plain number; the unit µM is understood.

Here is how some compounds turned out for TGI.
[[record]]
compound = "CC1OC(OC2C(OC(=O)[C@]34CCC(C)(C)C[C@H]3C3=CC[C@@H]5[C@@]6(C)CC[C@H](OC7OC(C(=O)O)C(O)C(O)C7O)C(C)(C)[C@@H]6CC[C@@]5(C)[C@]3(C)C[C@H]4O)OCC(O)C2O)C(O)C(OC2OCC(O)(CO)C2O)C1OC1OCC(O)C(O)C1O (stereo partly specified)"
quantity_unit = "µM"
quantitative_readout = 20.7

[[record]]
compound = "COc1cccc2c1OC1(C=C2)Oc2ccccc2C(=O)N1C (stereo unspecified)"
quantity_unit = "µM"
quantitative_readout = 59.8

[[record]]
compound = "C=CCSc1nnc2cc(CN3CCCC3)c(-c3ccc(Cl)cc3)nn12"
quantity_unit = "µM"
quantitative_readout = 41.7


Task: Provide TGI, tested on MDA-MB-435, for OCCCCCNCc1cc2cc3c(cc2c2cc(OCc4ccccc4)ccc12)OCO3 .
Result: 3.02

Task: Provide TGI, tested on MDA-MB-435, for CCN(CC)/C(SCc1ccccc1)=C(\C(Cl)=C(Cl)Cl)[N+](=O)[O-] .
Result: 32

Task: Provide TGI, tested on MDA-MB-435, for COc1cc2c3c(n(C)c(=O)c2cc1OC)-c1cc2c(cc1/C3=C\CCCN)OCO2 .
Result: 41.6

Task: Provide TGI, tested on MDA-MB-435, for CN(C)c1ccc(C(=N/N=C2\C(=O)Nc3ccccc32)c2ccc(N(C)C)cc2)cc1 .
Result: 0.0567

* * *

Listed here: items and their measured TGI.
System: T-47D breast
Test: NCI tumour cell line growth inhibition, 48 h

Here is how some compounds turned out for TGI.
[[record]]
compound = "Cc1cc(/C=C/c2ccc3cc(N(C)C)ccc3[n+]2C)c(C)n1-c1ccccc1"
result = "1.15 µM"

[[record]]
compound = "CC1(C)CCCC2OC2CCC(C)(C)C1=O (stereo not drawn)"
result = "> 100 µM"

[[record]]
compound = "COc1ccc(-c2nnc(COc3ccc(C(=O)/C=C/c4ccco4)cc3)o2)cc1"
result = "10.8 µM"

[[record]]
compound = "CCN(CC)CCn1c(=O)c2cccnc2n2c3c(=O)n(C)c(=O)n(C)c3nc12"
result = "> 100 µM"

[[record]]
compound = "NS(=O)(=O)c1cc(Cl)c(NC(=S)NC(=O)Nc2ccc(Cl)c(Cl)c2)c(Cl)c1"
result = "> 100 µM"


We now examine a further compound.
Task: Input CN(C(=O)c1ccc(C(F)(F)F)cc1)c1ccc(Oc2ccc3c(c2)cc(C(=O)N2CCN(Cc4ccc(OC(F)F)cc4)CC2)n3C)nc1 , output reported TGI.
Result: > 58.2 µM
